System: WiDr (Colon)
Experiment: Antiproliferative SRB assay
Assay type: cell-based, human
Conditions: Homo sapiens, WiDr, mean ± SD of at least two experiments
Description: Cells, cultures and the activity test of abietane analogs followed reported methods. The SRB assay was performed as previously described, and the antiproliferative activity was given as GI50 values, which were calculated according to NCI formulas.
ATTRIBUTE_MEASURED: GI50 (µM)
Report the value in µM with no unit label.

// query Give GI50 for CC(C)c1cc2c(cc1O)[C@@]1(C)CCC[C@](C)(CO)[C@@H]1CC2=O [Compound 15, 19-hydroxysugiol]
// result 17

// query Give GI50 for CC(C)c1cc2c(cc1O)[C@@]1(C)CCC[C@](C)(C(=O)O)[C@@H]1CC2
// result 59

// query Give GI50 for COC(=O)[C@@]1(C)CCC[C@]2(C)c3cc(O)c(C(C)C)cc3C(=O)C[C@@H]12
// result 6.1

// query Give GI50 for COC(=O)[C@@]1(C)CCC[C@]2(C)c3cc(C(C)=O)c(C(C)C)cc3CC[C@@H]12
// result 15

// query Give GI50 for COc1cc([C@@H]2c3cc4c(cc3[C@@H](O[C@@H]3O[C@@H]5CO[C@@H](C)O[C@H]5[C@H](O)[C@H]3O)[C@H]3COC(=O)[C@H]23)OCO4)cc(OC)c1O [etoposide, reference compound]
// result 23

// query Give GI50 for COC(=O)[C@@]1(C)CCC[C@]2(C)c3cc(O)c(C(C)C)cc3CC[C@@H]12
// result 3.7

// query Give GI50 for COC(=O)[C@@]1(C)CCC[C@]2(C)c3cc(OC(C)=O)c(C(C)C)cc3CC[C@@H]12
// result 4.5

---

Tested on: P. falciparum 3D7 strain
Experiment: Antiplasmodial DNA stain-based growth assay
Assay type: cell-based
Conditions: Plasmodium falciparum, 3D7; chloroquine-sensitive strain; 72 h incubation; read-out: P. falciparum 3D7 EC50
Procedure: Assays were performed by using previously described DNA stain-based assay and methods, including cytotoxicity assays.
For each of the compounds below, state its EC50.
Report the value in µM with no unit label.

// query Answer with EC50 of COC(=O)[C@@]1(C)CCC[C@]2(C)c3cc(OC(C)=O)c(C(C)C)cc3C(=O)C[C@@H]12 measured for P. falciparum 3D7 strain.
// result 7.1

// query Answer with EC50 of COC(=O)[C@@]1(C)CCC[C@]2(C)c3cc(C(C)=O)c(C(C)C)cc3CC[C@@H]12 measured for P. falciparum 3D7 strain.
// result 12.8

// query Answer with EC50 of COC(=O)[C@@]1(C)CCC[C@]2(C)c3cc(O)c(C(C)C)cc3C(=O)C[C@@H]12 measured for P. falciparum 3D7 strain.
// result 4.8

// query Answer with EC50 of COC(=O)[C@@]1(C)CCC[C@]2(C)c3cc(O)c(C(C)C)cc3CC[C@@H]12 measured for P. falciparum 3D7 strain.
// result 4.7

---

For each of the molecules below, state its pIC50.
system: L. infantum promastigotes; assay: Antileishmanial in vitro promastigote assay; settings: Leishmania infantum, read-out: L. infantum IC50 ± SD
Keep it numeric: pIC50 is minus log10 of the concentration in mol/L.

// query Give pIC50 for CCCCCCCCCCCCCCCCOP(=O)([O-])OCC[N+](C)(C)C [Miltefosine, reference compound]
// result 5.47

// query Give pIC50 for COC(=O)[C@@]1(C)CCC[C@]2(C)c3cc(C(C)=O)c(C(C)C)cc3CC[C@@H]12
// result 4.69

// query Give pIC50 for CC(C)c1cc2c(cc1O)C1(C)CCCC(C)(C(=O)O)C1CC2=O (single isomer, unassigned; (+)) [Compound 8a, (+)-4-epi-liquiditerpenoic acid A]
// result 4.00

// query Give pIC50 for CC(C)c1cc2c(cc1O)[C@@]1(C)CCC[C@](C)(C(=O)O)[C@@H]1CC2
// result 4.54

// query Give pIC50 for COC(=O)[C@@]1(C)CCC[C@]2(C)c3cc(O)c(C(C)C)cc3C(=O)C[C@@H]12
// result 5.00

// query Give pIC50 for COC(=O)[C@@]1(C)CCC[C@]2(C)c3cc(OC(C)=O)c(C(C)C)cc3CC[C@@H]12
// result 5.44

---

test system: A549 (Lung); test: Antiproliferative SRB assay; assay type: cell-based, human; settings: Homo sapiens, A549, mean ± SD of at least two experiments
ATTRIBUTE_MEASURED: GI50 (µM)
Report the value in µM with no unit label.

// query Give GI50 for CC(C)c1cc2c(cc1O)[C@@]1(C)CCC[C@](C)(C(=O)O)[C@@H]1CC2
// result 17

// query Give GI50 for COC(=O)[C@@]1(C)CCC[C@]2(C)c3cc(C(C)=O)c(C(C)C)cc3CC[C@@H]12
// result 15

// query Give GI50 for COC(=O)[C@@]1(C)CCC[C@]2(C)c3cc(OC(C)=O)c(C(C)C)cc3C(=O)C[C@@H]12
// result 3.1

// query Give GI50 for CC(C)c1cc2c(cc1O)[C@@]1(C)CCC[C@](C)(CO)[C@@H]1CC2=O [Compound 15, 19-hydroxysugiol]
// result 10

// query Give GI50 for COc1cc([C@@H]2c3cc4c(cc3[C@@H](O[C@@H]3O[C@@H]5CO[C@@H](C)O[C@H]5[C@H](O)[C@H]3O)[C@H]3COC(=O)[C@H]23)OCO4)cc(OC)c1O [etoposide, reference compound]
// result 1.5

---

For each of the compounds below, state its CC50.
test: in vitro; details: mouse, Macrophages J774 CC50

// query Give CC50 for CC(C)c1cc2c(cc1O)C1(C)CCCC(C)(C(=O)O)C1CC2=O (single isomer, unassigned; (+)) [Compound 8a, (+)-4-epi-liquiditerpenoic acid A]
// result > 200 µM

// query Give CC50 for CC(C)c1cc2c(cc1O)[C@@]1(C)CCC[C@](C)(C(=O)O)[C@@H]1CC2
// result > 200 µM

// query Give CC50 for COC(=O)[C@@]1(C)CCC[C@]2(C)c3cc(O)c(C(C)C)cc3C(=O)C[C@@H]12
// result > 200 µM
